Test: clinical
Conditions: human, plasma, po, 2.5 mg
outcome_measure: Tmax

For this compound ( CC#CCn1c(N2CCC[C@@H](N)C2)nc2c1c(=O)n(Cc1nc(C)c3ccccc3n1)c(=O)n2C [BI 1356] ), measured Tmax is 2 h

* * *

Assay: clinical
Conditions: human, plasma, po, 1 mg
outcome_measure: Cmax
Be sure to follow the number with its unit.

Measured Cmax of CC#CCn1c(N2CCC[C@@H](N)C2)nc2c1c(=O)n(Cc1nc(C)c3ccccc3n1)c(=O)n2C [BI 1356] : 3.13 nM

* * *

Assay: Pharmacokinetics of BI 1356, multiple oral doses once daily for 12 days in adult patients with type 2 diabetes
Conditions: read-out: Cmax,ss; gMean; steady state (Day 12); 10 mg once daily oral
outcome_measure: Cmax (nM)
Answers are plain numbers, in nM.

For this molecule ( CC#CCn1c(N2CCC[C@@H](N)C2)nc2c1c(=O)n(Cc1nc(C)c3ccccc3n1)c(=O)n2C [BI 1356] ), measured Cmax is 13.6
